Test system: Metaphire posthuma
Assay Method Text: Anthelmintic activity against Pheretima posthuma assessed as time taken for complete parasite paralysis at 0.2% w/v
Type: functional
Label class 1 when Time is strictly below 50 min; at or above that, label class 0.

Consider the compound CCOC(=O)c1cnn(-c2nc(-c3cccc(OC)c3OC)c(C#N)c(=O)n2C)c1N . Is its Time strictly less than 50 min? class 0

Consider the compound CSc1nc(-c2ccco2)c(C#N)c(=O)n1C . Is its Time strictly less than 50 min? class 1

Consider the compound COc1ccc(-c2nc(SC)n(C)c(=O)c2C#N)cc1 . Is its Time strictly less than 50 min? class 1

Consider the compound Cn1c(NN)nc(-c2ccccc2Cl)c(C#N)c1=O . Is its Time strictly less than 50 min? class 0

Consider the compound CCOC(=O)c1cnn(-c2nc(-c3ccccc3F)c(C#N)c(=O)n2C)c1N . Is its Time strictly less than 50 min? class 0
